This collection of values is drawn from patent US11179391B2.

target_desc: CDK2/CycA2 (Homo sapiens, UniProt P24941)
assay_name: Determination of CDK activity (Caliper mobility shift, FAM-P8 peptide): CDK2
Type: biochemical
settings: read-out: CDK2 enzymatic inhibitory activity (IC50)
Where a name gives a salt, the structure may show the parent alone.

molecule	IC50
Cc1nc2c(F)cc(-c3nc(Nc4ccc(C(O)C5CCNCC5)cn4)ncc3F)cc2n1C(C)C (stereo not shown) [Example 42, hydrochloride]	< 100 nM

* * *

AUC(0-t) values for the molecules below.
assay_name: Pharmacokinetic study in rats
Type: in vivo, Sprague-Dawley rats
settings: rat; male Sprague-Dawley rats, plasma; study dosed iv 2 mg/kg and oral 5 mg/kg, route of this parameter not given; read-out: AUC0-24 h
reported_endpoint: AUC(0-t) (ng·h/mL)

molecule	meas_value
C=C(c1ccc(Nc2ncc(F)c(-c3cc(F)c4nc(C)n(C(C)C)c4c3)n2)nc1)C1CCN(CC)CC1	2570
CCN1CCC(=Cc2ccc(Nc3ncc(F)c(-c4cc(F)c5nc(C)n(C(C)C)c5c4)n3)nc2)CC1	3080
CCN1CCC(C(C)c2ccc(Nc3ncc(F)c(-c4cc(F)c5nc(C)n(C(C)C)c5c4)n3)nc2)CC1 (single isomer, unassigned)	3580
CCN1CCC(C(O)c2ccc(Nc3ncc(F)c(-c4cc(F)c5nc(C)n(C(C)C)c5c4)n3)nc2)CC1 (single isomer, unassigned)	132
